target_entity: KDM4C (Homo sapiens, UniProt Q9H3R0)
Construct: N-terminal GST-tagged KDM4C^2-372 was purchased from BPS Biosciences; GST (N); purchased BPS Biosciences
Sequence (Q9H3R0 2-372): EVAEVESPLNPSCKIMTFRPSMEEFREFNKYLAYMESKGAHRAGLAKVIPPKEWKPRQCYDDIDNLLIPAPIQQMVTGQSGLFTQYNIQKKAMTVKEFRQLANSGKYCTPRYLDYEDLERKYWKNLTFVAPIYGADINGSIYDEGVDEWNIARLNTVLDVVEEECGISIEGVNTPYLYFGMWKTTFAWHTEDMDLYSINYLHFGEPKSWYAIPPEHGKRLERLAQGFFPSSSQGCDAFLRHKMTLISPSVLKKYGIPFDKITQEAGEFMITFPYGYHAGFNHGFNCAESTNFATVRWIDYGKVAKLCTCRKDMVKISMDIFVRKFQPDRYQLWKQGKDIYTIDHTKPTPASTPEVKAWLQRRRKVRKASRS
assay_overview: KDM4C Assay (SAMDI mass spectrometry demethylase assay)
Assay type: biochemical
applied_conditions: N-terminal GST-tagged KDM4C 2-372; class symbols; read-out: 4C IC50
Listed next: entries and their corresponding IC50.

Guide cases for IC50, answers given:
[
  {
    "compound": "CNC(=O)c1ccc(-n2ncc(Nc3cnccc3C(=O)O)c2C)cc1 [Compound 58]",
    "IC50": "1 to 100 nM"
  },
  {
    "compound": "O=C(O)c1ccncc1Nc1nn(CCN2CCC(F)(F)CC2)cc1C1CCCCC1 [Compound 57]",
    "IC50": "100 to 1000 nM"
  },
  {
    "compound": "O=C(O)c1ccncc1Nc1nn(CCN2CCC(F)(F)CC2)cc1-c1ccccc1 [Compound 14]",
    "IC50": "100 to 1000 nM"
  }
]

Sure, the documented IC50 for CN1CCN(CCn2ncc(-c3ccccc3)c2Nc2cnccc2C(=O)O)CC1 [Compound 35] is 100 to 1000 nM

Sure, the documented IC50 for Cc1c(Nc2cnccc2C(=O)O)cnn1CCN(C)C [Compound 108] is 1000 to 10000 nM

Sure, the documented IC50 for O=C(O)c1ccncc1Nc1nn(CCN2CCC(F)(F)CC2)cc1-c1ccc(F)cc1 [Compound 45] is 100 to 1000 nM

Sure, the documented IC50 for O=C(O)c1ccncc1Nc1cn(-c2ccccc2)nc1-c1ccccc1 [Compound 41] is 100 to 1000 nM

Sure, the documented IC50 for Cc1cn(-c2cccc3c2CCNC3)nc1Nc1cnccc1C(=O)O [Compound 143] is 100 to 1000 nM

Sure, the documented IC50 for CC(C)n1nc(-c2ccccc2)cc1Nc1cnccc1C(=O)O [Compound 22] is 100 to 1000 nM
